Test system: cotton aphid (Aphis gossypii)
protocolDescription: Aphis gossypii test (APHIGO spray treatment)
Type: in vivo
measurementParameters: 0.8 ppm a.i. + ammonium sulphate 1000 ppm; cotton leaves sprayed; 6 days
Recorded Kill in % after 6 days +AMS for the following compounds
Record the value in %, omitting the unit from your answer.

Illustrative cases are given below, each with its answer.
In [3]: df
Out[3]:
                              itemsmiles  readingunit  assayresult
0       CN(Cc1cnc(Cl)c(F)c1)C1=CC(=O)OC1            %           30
1  O=C1C=C(N(Cc2cnc(Cl)c(Cl)c2)C2CC2)CO1            %            0

Looking up `O=C1C=C(N(Cc2ccc(Br)nc2)CC(F)F)CO1` , I found its Kill in % after 6 days +AMS recorded as 98

Looking up `O=C1C=C(N(Cc2ccc(Cl)nc2)CC(F)F)CO1` , I found its Kill in % after 6 days +AMS recorded as 60

Looking up `O=C1C=C(N(Cc2ccc(Cl)nc2)C2CC2)CO1` , I found its Kill in % after 6 days +AMS recorded as 65

###

Test system: green peach aphid (Myzus persicae)
protocolDescription: Myzus persicae test (MYZUPE)
Type: in vivo
measurementParameters: 4 ppm a.i. + AMS and RME 1000 ppm each; pepper plants sprayed; 6 days
Recorded Kill in % after 6 days +AMS + RME for the following molecules
Record the value in %, omitting the unit from your answer.

Illustrative cases are given below, each with its answer.
>>> df
                              itemsmiles                  experimentaltarget  assayresult
0        O=C1C=C(N(CCF)Cc2ccc(Br)nc2)CO1  green peach aphid (Myzus persicae)           99
1          CN(Cc1ccc(Cl)nc1)C1=CC(=O)CC1  green peach aphid (Myzus persicae)          100
2  O=C1C=C(N(Cc2cnc(Br)c(F)c2)CC(F)F)CO1  green peach aphid (Myzus persicae)          100

Attention now turns to another entry.
Looking up `O=C1C=C(N(Cc2cnc(Br)c(F)c2)C2CC2)CO1` , I found its Kill in % after 6 days +AMS + RME recorded as 95

###

Recorded Kill in % after 6 days +AMS for the following compounds
System: cotton aphid (Aphis gossypii)
protocolDescription: Aphis gossypii test (APHIGO spray treatment)
Assay type: in vivo
measurementParameters: 0.8 ppm a.i. + ammonium sulphate 1000 ppm; cotton leaves sprayed; 6 days
Reply with the number, then its unit.

                         itemsmiles             experimentaltarget  assayresult
0     CN(Cc1ccc(Cl)nc1)C1=CC(=O)CC1  cotton aphid (Aphis gossypii)          50%
1   O=C1C=C(N(CCF)Cc2ccc(Cl)nc2)CO1  cotton aphid (Aphis gossypii)          55%
2  O=C1C=C(N(Cc2ccc(F)nc2)C2CC2)CO1  cotton aphid (Aphis gossypii)          20%

Looking up `CN(Cc1cnc(Br)c(F)c1)C1=CC(=O)OC1` , I found its Kill in % after 6 days +AMS recorded as 55%

FYI, the data here is from patent US20100173943A1.
